Source listed as ChEMBL document CHEMBL1138896.

System name: GABA-A receptor; alpha-3/beta-3/gamma-2 (Homo sapiens, UniProt P18507+P28472+P34903)
Sequence (P18507 whole entry): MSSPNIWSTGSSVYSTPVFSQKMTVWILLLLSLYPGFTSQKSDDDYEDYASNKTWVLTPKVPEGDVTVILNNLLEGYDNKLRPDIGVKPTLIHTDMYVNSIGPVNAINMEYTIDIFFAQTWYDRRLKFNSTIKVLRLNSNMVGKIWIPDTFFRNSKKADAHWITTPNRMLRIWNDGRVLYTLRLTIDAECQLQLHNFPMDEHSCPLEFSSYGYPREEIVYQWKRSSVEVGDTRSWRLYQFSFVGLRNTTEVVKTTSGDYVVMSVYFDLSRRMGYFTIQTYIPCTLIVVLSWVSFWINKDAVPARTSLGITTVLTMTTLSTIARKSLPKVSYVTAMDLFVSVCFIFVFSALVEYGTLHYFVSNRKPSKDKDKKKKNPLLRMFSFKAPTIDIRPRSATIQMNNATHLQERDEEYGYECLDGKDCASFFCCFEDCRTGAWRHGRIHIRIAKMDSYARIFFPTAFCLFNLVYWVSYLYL
Sequence (P28472 whole entry): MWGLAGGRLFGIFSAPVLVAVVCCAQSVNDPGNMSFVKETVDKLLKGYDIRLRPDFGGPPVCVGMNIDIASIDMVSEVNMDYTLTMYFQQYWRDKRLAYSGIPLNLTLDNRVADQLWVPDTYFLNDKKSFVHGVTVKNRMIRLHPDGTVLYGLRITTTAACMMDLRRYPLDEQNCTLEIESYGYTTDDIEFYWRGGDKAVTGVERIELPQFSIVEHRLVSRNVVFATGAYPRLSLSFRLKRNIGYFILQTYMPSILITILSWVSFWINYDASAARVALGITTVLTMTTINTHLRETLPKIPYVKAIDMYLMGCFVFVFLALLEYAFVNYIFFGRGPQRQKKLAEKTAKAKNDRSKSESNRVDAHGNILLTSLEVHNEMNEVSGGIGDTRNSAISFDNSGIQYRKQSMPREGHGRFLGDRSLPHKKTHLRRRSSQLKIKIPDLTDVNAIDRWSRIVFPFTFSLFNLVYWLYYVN
Sequence (P34903 whole entry): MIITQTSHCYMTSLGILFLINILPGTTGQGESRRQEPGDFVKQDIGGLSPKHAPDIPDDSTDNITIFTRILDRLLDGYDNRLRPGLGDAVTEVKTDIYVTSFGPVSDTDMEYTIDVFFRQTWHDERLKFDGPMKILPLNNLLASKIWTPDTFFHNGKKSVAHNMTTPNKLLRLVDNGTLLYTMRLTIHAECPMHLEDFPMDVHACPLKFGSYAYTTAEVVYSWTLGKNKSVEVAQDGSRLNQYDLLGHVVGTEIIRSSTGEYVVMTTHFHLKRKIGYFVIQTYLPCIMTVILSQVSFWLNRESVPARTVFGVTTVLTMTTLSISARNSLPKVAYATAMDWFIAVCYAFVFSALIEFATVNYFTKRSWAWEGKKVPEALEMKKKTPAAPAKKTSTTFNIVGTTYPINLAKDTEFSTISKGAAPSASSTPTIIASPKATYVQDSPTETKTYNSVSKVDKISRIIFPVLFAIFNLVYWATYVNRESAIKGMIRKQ
Assay notes: Inhibition of [3H]Ro15-1788 binding to human recombinant GABA-Aalpha3 plus beta-3-gamma-2 receptor expressed in L(tk-) cells
Label Y when Ki is strictly below 1 nM; at or above that, label N.

[
  {
    "Molecule": "Cn1ncnc1COc1nn2c(-c3ccccc3F)nncc2c1-c1c(F)cccc1F",
    "Group": "Y"
  },
  {
    "Molecule": "Cn1ncnc1COc1nn2c(-c3ccccc3F)nncc2c1-c1ccccc1F",
    "Group": "Y"
  },
  {
    "Molecule": "Cn1ncnc1COc1nn2c(-c3c(F)cccc3F)nncc2c1-c1ccccc1F",
    "Group": "Y"
  },
  {
    "Molecule": "Cn1ncnc1COc1nn2c(-c3ccccc3F)nncc2c1-c1ccccc1C(F)(F)F",
    "Group": "N"
  },
  {
    "Molecule": "Cn1ncnc1COc1nn2c(-c3ccccc3F)nncc2c1-c1ccsc1",
    "Group": "Y"
  },
  {
    "Molecule": "Cn1ncnc1COc1nn2c(-c3ccccc3F)nncc2c1-c1ccccn1",
    "Group": "N"
  },
  {
    "Molecule": "Cn1ncnc1COc1nn2c(-c3ccccc3F)nncc2c1-c1ccccc1Cl",
    "Group": "N"
  },
  {
    "Molecule": "Cn1ncnc1COc1nn2c(-c3ccccc3F)nncc2c1-c1cccc(F)c1F",
    "Group": "N"
  },
  {
    "Molecule": "Cn1ncnc1COc1nn2c(-c3cc(F)ccc3F)nncc2c1-c1ccccc1F",
    "Group": "N"
  },
  {
    "Molecule": "Cn1ncnc1COc1nn2c(-c3c(F)cc(F)cc3F)nncc2c1-c1ccccc1F",
    "Group": "N"
  },
  {
    "Molecule": "Cn1ncnc1COc1nn2c(-c3ccc(F)cc3)nncc2c1-c1ccccc1F",
    "Group": "Y"
  },
  {
    "Molecule": "Cn1ncnc1COc1nn2c(-c3ccccc3F)nncc2c1-c1ccccc1",
    "Group": "Y"
  },
  {
    "Molecule": "Cn1ncnc1COc1nn2c(-c3c(F)ccc(F)c3F)nncc2c1-c1ccccc1F",
    "Group": "N"
  },
  {
    "Molecule": "Cn1ncnc1COc1nn2c(-c3ccccc3F)nncc2c1-c1cncnc1",
    "Group": "N"
  },
  {
    "Molecule": "Cn1ncnc1COc1nn2c(-c3ccco3)nncc2c1-c1ccccc1F",
    "Group": "Y"
  },
  {
    "Molecule": "Cn1ncnc1COc1nn2c(-c3ccccc3F)nncc2c1-c1cc(F)cc(F)c1",
    "Group": "N"
  },
  {
    "Molecule": "Cn1ncnc1COc1nn2c(-c3ccccc3F)nncc2c1-c1cccc(C#N)c1",
    "Group": "N"
  },
  {
    "Molecule": "Cn1ncnc1COc1nn2c(-c3ccc(F)cc3F)nncc2c1-c1ccccc1F",
    "Group": "N"
  },
  {
    "Molecule": "Cn1ncnc1COc1nn2c(-c3ccoc3)nncc2c1-c1ccccc1F",
    "Group": "Y"
  },
  {
    "Molecule": "Cn1ncnc1COc1nn2c(-c3ccccc3F)nncc2c1-c1cccc(F)c1",
    "Group": "Y"
  },
  {
    "Molecule": "Cn1ncnc1COc1nn2c(-c3ccccc3Cl)nncc2c1-c1ccccc1F",
    "Group": "N"
  }
]

====

System name: GABA-A receptor; alpha-1/beta-3/gamma-2 (Homo sapiens) (UniProt P14867+P18507+P28472)
Assay notes: Efficacy against human recombinant GABA-Aalpha1 plus beta-3-gamma-2 receptor expressed in L(tk-) cells assessed as modulation of chloride ion by whole cell patch clamp method relative to chlorodiazepoxide
Type: functional, cell-based
Label y when Efficacy is strictly below 0.3; at or above that, label n.

[
  {
    "Molecule": "Cn1ncnc1COc1nn2c(-c3ccccc3F)nncc2c1-c1ccncc1",
    "System name": "GABA-A receptor; alpha-1/beta-3/gamma-2 (Homo sapiens) (UniProt P14867+P18507+P28472)",
    "Group": "y"
  },
  {
    "Molecule": "Cn1ncnc1COc1nn2c(-c3ccccc3F)nncc2c1-c1c(F)cccc1F",
    "System name": "GABA-A receptor; alpha-1/beta-3/gamma-2 (Homo sapiens) (UniProt P14867+P18507+P28472)",
    "Group": "y"
  },
  {
    "Molecule": "Cn1ncnc1COc1nn2c(-c3c(F)ccc(F)c3F)nncc2c1-c1ccccc1F",
    "System name": "GABA-A receptor; alpha-1/beta-3/gamma-2 (Homo sapiens) (UniProt P14867+P18507+P28472)",
    "Group": "n"
  },
  {
    "Molecule": "Cn1ncnc1COc1nn2c(-c3ccccc3F)nncc2c1-c1ccccn1",
    "System name": "GABA-A receptor; alpha-1/beta-3/gamma-2 (Homo sapiens) (UniProt P14867+P18507+P28472)",
    "Group": "n"
  },
  {
    "Molecule": "Cn1ncnc1COc1nn2c(-c3ccccc3F)nncc2c1-c1cccc(F)c1F",
    "System name": "GABA-A receptor; alpha-1/beta-3/gamma-2 (Homo sapiens) (UniProt P14867+P18507+P28472)",
    "Group": "y"
  },
  {
    "Molecule": "Cn1ncnc1COc1nn2c(-c3ccccc3F)nncc2c1-c1ccccc1",
    "System name": "GABA-A receptor; alpha-1/beta-3/gamma-2 (Homo sapiens) (UniProt P14867+P18507+P28472)",
    "Group": "y"
  },
  {
    "Molecule": "Cn1ncnc1COc1nn2c(-c3c(F)cccc3F)nncc2c1-c1ccccc1F",
    "System name": "GABA-A receptor; alpha-1/beta-3/gamma-2 (Homo sapiens) (UniProt P14867+P18507+P28472)",
    "Group": "y"
  },
  {
    "Molecule": "Cn1ncnc1COc1nn2c(-c3c(F)cc(F)cc3F)nncc2c1-c1ccccc1F",
    "System name": "GABA-A receptor; alpha-1/beta-3/gamma-2 (Homo sapiens) (UniProt P14867+P18507+P28472)",
    "Group": "n"
  },
  {
    "Molecule": "Cn1ncnc1COc1nn2c(-c3ccccc3F)nncc2c1-c1cc(F)ccc1F",
    "System name": "GABA-A receptor; alpha-1/beta-3/gamma-2 (Homo sapiens) (UniProt P14867+P18507+P28472)",
    "Group": "y"
  },
  {
    "Molecule": "Cn1ncnc1COc1nn2c(-c3ccccc3F)nncc2c1-c1cccc(Cl)c1",
    "System name": "GABA-A receptor; alpha-1/beta-3/gamma-2 (Homo sapiens) (UniProt P14867+P18507+P28472)",
    "Group": "n"
  }
]

====

System name: GABA-A receptor; alpha-3/beta-3/gamma-2 (Homo sapiens, UniProt P18507+P28472+P34903)
Assay notes: Inhibition of [3H]Ro15-1788 binding to human recombinant GABA-Aalpha3 plus beta-3-gamma-2 receptor expressed in L(tk-) cells
Below, each entry is listed with its recorded Ki.
Observable: Ki (nM)

[
  {
    "Molecule": "Cn1ncnc1COc1nn2c(-c3cccc(F)c3)nncc2c1-c1ccccc1F",
    "System name": "GABA-A receptor; alpha-3/beta-3/gamma-2 (Homo sapiens, UniProt P18507+P28472+P34903)",
    "Observable": "Ki",
    "Result": 1.2
  },
  {
    "Molecule": "Cn1ncnc1COc1nn2c(-c3ccccc3F)nncc2c1-c1ccco1",
    "System name": "GABA-A receptor; alpha-3/beta-3/gamma-2 (Homo sapiens, UniProt P18507+P28472+P34903)",
    "Observable": "Ki",
    "Result": 0.11
  },
  {
    "Molecule": "Cn1ncnc1COc1nn2c(-c3ccccc3F)nncc2c1-c1cccc(N)c1",
    "System name": "GABA-A receptor; alpha-3/beta-3/gamma-2 (Homo sapiens, UniProt P18507+P28472+P34903)",
    "Observable": "Ki",
    "Result": 14
  },
  {
    "Molecule": "Cn1ncnc1COc1nn2c(-c3ccccc3F)nncc2c1-c1cccnc1",
    "System name": "GABA-A receptor; alpha-3/beta-3/gamma-2 (Homo sapiens, UniProt P18507+P28472+P34903)",
    "Observable": "Ki",
    "Result": 0.98
  },
  {
    "Molecule": "Cn1ncnc1COc1nn2c(-c3ccccc3F)nncc2c1-c1cccc(Cl)c1",
    "System name": "GABA-A receptor; alpha-3/beta-3/gamma-2 (Homo sapiens, UniProt P18507+P28472+P34903)",
    "Observable": "Ki",
    "Result": 1.1
  }
]

====

System name: GABA-A receptor; alpha-1/beta-3/gamma-2 (Homo sapiens) (UniProt P14867+P18507+P28472)
Assay notes: Efficacy against human recombinant GABA-Aalpha1 plus beta-3-gamma-2 receptor expressed in L(tk-) cells assessed as modulation of chloride ion by whole cell patch clamp method relative to chlorodiazepoxide
Format: functional, cell-based
Label yes when Efficacy is strictly below 0.07; at or above that, label no.

[
  {
    "Molecule": "Cn1ncnc1COc1nn2c(-[n+]3ccncc3)nncc2c1-c1ccccc1F",
    "Group": "yes"
  },
  {
    "Molecule": "Cn1ncnc1COc1nn2c(-c3ccc(F)cc3F)nncc2c1-c1ccccc1F",
    "Group": "no"
  },
  {
    "Molecule": "Cn1ncnc1COc1nn2c(-c3ccc(F)cc3)nncc2c1-c1ccccc1F",
    "Group": "no"
  },
  {
    "Molecule": "Cn1ncnc1COc1nn2c(-c3cccs3)nncc2c1-c1ccccc1",
    "Group": "yes"
  },
  {
    "Molecule": "Cn1ncnc1COc1nn2c(-c3cccc(F)c3)nncc2c1-c1ccccc1F",
    "Group": "no"
  },
  {
    "Molecule": "Cn1ncnc1COc1nn2c(-c3ccccc3F)nncc2c1-c1ccc(F)cc1",
    "Group": "no"
  },
  {
    "Molecule": "Cn1ncnc1COc1nn2c(-c3cc(F)ccc3F)nncc2c1-c1ccccc1F",
    "Group": "no"
  },
  {
    "Molecule": "Cn1ncnc1COc1nn2c(-c3ccccc3F)nncc2c1-c1cccnc1",
    "Group": "no"
  },
  {
    "Molecule": "Cn1ncnc1COc1nn2c(-c3ccccc3F)nncc2c1-c1cccc(F)c1",
    "Group": "no"
  },
  {
    "Molecule": "Cn1ncnc1COc1nn2c(-c3ccccc3F)nncc2c1-c1cccc(C#N)c1",
    "Group": "no"
  },
  {
    "Molecule": "Cn1ncnc1COc1nn2c(-c3ccccc3F)nncc2c1-c1ccco1",
    "Group": "yes"
  },
  {
    "Molecule": "Cn1ncnc1COc1nn2c(-c3ccccc3F)nncc2c1-c1ccccc1Cl",
    "Group": "no"
  },
  {
    "Molecule": "Cn1ncnc1COc1nn2c(-c3cccnc3)nncc2c1-c1ccccc1F",
    "Group": "no"
  },
  {
    "Molecule": "Cn1ncnc1COc1nn2c(-c3ccccc3F)nncc2c1-c1ccccc1F",
    "Group": "no"
  },
  {
    "Molecule": "Cn1ncnc1COc1nn2c(-c3ccco3)nncc2c1-c1ccccc1F",
    "Group": "yes"
  },
  {
    "Molecule": "Cn1ncnc1COc1nn2c(-c3ccccc3F)nncc2c1-c1ccsc1",
    "Group": "yes"
  },
  {
    "Molecule": "Cn1ncnc1COc1nn2c(-c3ccccc3Cl)nncc2c1-c1ccccc1F",
    "Group": "yes"
  },
  {
    "Molecule": "Cn1ncnc1COc1nn2c(-c3ccccc3F)nncc2c1-c1cccc(N)c1",
    "Group": "no"
  },
  {
    "Molecule": "Cn1ncnc1COc1nn2c(C3CC3)nncc2c1-c1ccccc1F",
    "Group": "yes"
  },
  {
    "Molecule": "Cn1ncnc1COc1nn2c(-c3ccccc3F)nncc2c1-c1cccc(CO)c1",
    "Group": "no"
  },
  {
    "Molecule": "Cn1ncnc1COc1nn2c(-c3ccccc3F)nncc2c1-c1cccs1",
    "Group": "yes"
  }
]
